Listed next: entries and their corresponding MIC K. pneumoniae GN_106, PmxR.
System: K. pneumoniae GN_106, PmxR
experimentalSetup: GN 106, PmxR
Positions of bridges follow the written chain, without caps; N, C: chain ends. Non-standard residues stand in square brackets, D forms with d. Residues, ends and D or L forms follow the SMILES beside them. *: point of attachment. Decanoyl(3R-OH) = CCCCCCC[C@@H](O)CC(=O)*; dPhe(4-NH2) = Nc1ccc(C[C@@H](N)C(=O)O)cc1; dIgl = N[C@@H](C(=O)O)C1Cc2ccccc2C1; Igl = N[C@H](C(=O)O)C1Cc2ccccc2C1; dDab = NCC[C@@H](N)C(=O)O; dDap = NC[C@@H](N)C(=O)O; Dab = NCC[C@H](N)C(=O)O
Give the quantity in µg/mL, number only.

Sample records with MIC K. pneumoniae GN_106, PmxR:
>  <molecule>
CCCCCCC[C@@H](O)CC(=O)N[C@H](CCN)C(=O)N[C@H]1CCNC(=O)[C@H](C2Cc3ccccc3C2)NC(=O)[C@H](CCN)NC(=O)[C@H](CCN)NC(=O)[C@H](CC(C)C)NC(=O)[C@@H](Cc2ccccc2)NC(=O)[C@H](CCN)NC1=O [compound 8912] ({Decanoyl(3R-OH)}-[dDab][Dab][Dab][dF]L[Dab][Dab][Igl]; lactam 2-C)

>  <units>
µg/mL

>  <MIC K. pneumoniae GN_106, PmxR>
2

$$$$
>  <molecule>
CCCCCCC[C@@H](O)CC(=O)N[C@H](CCN)C(=O)N[C@H]1CCNC(=O)[C@H](CC(C)C)NC(=O)[C@H](CCN)NC(=O)[C@H](CCN)NC(=O)[C@H](CC(C)C)NC(=O)[C@@H](Cc2ccccc2)NC(=O)[C@H](CCN)NC1=O [Octapeptin C4 (631), reference compound] ({Decanoyl(3R-OH)}-[dDab][Dab][Dab][dF]L[Dab][Dab]L; lactam 2-C)

>  <units>
µg/mL

>  <MIC K. pneumoniae GN_106, PmxR>
4

$$$$

Respond only with MIC K. pneumoniae GN_106, PmxR recorded for CCCCCCC[C@@H](O)CC(=O)N[C@@H](CCN)C(=O)N[C@H]1CCNC(=O)[C@H](CC(C)C)NC(=O)[C@H](CCN)NC(=O)[C@H](CCN)NC(=O)[C@H](C)NC(=O)[C@@H](Cc2ccccc2)NC(=O)[C@H](CCN)NC1=O [compound 5563] ({Decanoyl(3R-OH)}-[Dab][Dab][Dab][dF]A[Dab][Dab]L; lactam 2-C)
32

Respond only with MIC K. pneumoniae GN_106, PmxR recorded for CCCCCCC[C@@H](O)CC(=O)N[C@H](CN)C(=O)N[C@H]1CCNC(=O)[C@H](Cc2c[nH]c3ccccc23)NC(=O)[C@H](CCN)NC(=O)[C@H](CCN)NC(=O)[C@H](C2Cc3ccccc3C2)NC(=O)[C@@H](C2Cc3ccccc3C2)NC(=O)[C@H](CCN)NC1=O [compound 8897] ({Decanoyl(3R-OH)}-[dDap][Dab][Dab][dIgl][Igl][Dab][Dab]W; lactam 2-C)
4

Respond only with MIC K. pneumoniae GN_106, PmxR recorded for CCCCCCC[C@@H](O)CC(=O)N[C@H](Cc1ccc(N)cc1)C(=O)N[C@H]1CCNC(=O)[C@H](CC(C)C)NC(=O)[C@H](CCN)NC(=O)[C@H](CCN)NC(=O)[C@H](CC(C)C)NC(=O)[C@@H](Cc2ccccc2)NC(=O)[C@H](CCN)NC1=O [compound 6444] ({Decanoyl(3R-OH)}-[dPhe(4-NH2)][Dab][Dab][dF]L[Dab][Dab]L; lactam 2-C)
8
